- MEASUREMENT TARGET: HPK1 (Homo sapiens, UniProt Q92918)
- Construct: A HiBiT tag was introduced by CRISPR on the N terminus of HPK1 in Jurkat cells; host or cells: Jurkat cells (ATCC TIB-152), monoclonal line with CRISPR knock-in of HiBiT at the endogenous HPK1 locus
- Sequence (Q92918 whole entry): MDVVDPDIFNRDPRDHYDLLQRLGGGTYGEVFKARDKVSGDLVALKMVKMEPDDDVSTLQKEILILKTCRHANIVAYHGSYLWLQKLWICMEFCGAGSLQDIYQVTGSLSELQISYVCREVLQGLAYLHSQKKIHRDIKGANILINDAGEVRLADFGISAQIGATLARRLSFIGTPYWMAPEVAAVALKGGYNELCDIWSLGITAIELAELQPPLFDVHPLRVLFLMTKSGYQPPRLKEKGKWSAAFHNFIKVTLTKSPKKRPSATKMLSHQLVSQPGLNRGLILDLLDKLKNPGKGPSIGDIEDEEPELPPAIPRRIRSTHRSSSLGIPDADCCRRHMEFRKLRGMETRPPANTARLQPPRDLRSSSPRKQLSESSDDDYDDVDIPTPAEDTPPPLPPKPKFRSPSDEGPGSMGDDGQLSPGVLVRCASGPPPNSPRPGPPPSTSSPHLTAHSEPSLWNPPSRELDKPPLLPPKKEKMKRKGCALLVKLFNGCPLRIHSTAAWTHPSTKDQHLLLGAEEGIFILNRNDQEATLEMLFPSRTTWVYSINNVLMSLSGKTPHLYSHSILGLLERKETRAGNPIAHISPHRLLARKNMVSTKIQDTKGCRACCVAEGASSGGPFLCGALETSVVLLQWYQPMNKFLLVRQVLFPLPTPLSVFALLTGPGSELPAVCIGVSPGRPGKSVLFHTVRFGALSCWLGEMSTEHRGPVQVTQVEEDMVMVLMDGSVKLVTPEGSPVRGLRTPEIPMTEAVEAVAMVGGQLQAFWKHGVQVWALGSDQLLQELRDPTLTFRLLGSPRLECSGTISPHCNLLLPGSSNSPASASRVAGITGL
- PROCEDURE SUMMARY: HPK1 Cellular HiBit Degradation Assay
- Format: cell-based
- CONDITION DETAILS: Jurkat, HiBiT HPK1 Jurkat cells, 24 hrs; maximum degradation vs DMSO vehicle control; read-out: Dmax Category

MOLECULE: CC(C)n1cnc2cc(-c3ccc4c(c3)N([C@H]3C[C@@H](N5CCCCC5)C3)C(=O)C43CCN(C(=O)C4(C)CCN(C(=O)C5CCN(c6ccc(C7CCC(=O)NC7=O)c(F)c6)CC5)CC4)CC3)nc(NC3CC3)c21 (mixture of isomers)
Dmax: 70 to 85%

MOLECULE: CC(C)n1cnc2cc(-c3ccc4c(c3)N([C@H]3C[C@@H](N5CCCCC5)C3)C(=O)C43CCN(C(=O)[C@@H]4CCN(C(=O)[C@H]5CC[C@H](Nc6ccc(C(=O)NC7CCC(=O)NC7=O)nc6)CC5)C4)CC3)nc(Nc3ccccc3F)c21 (mixture of isomers)
Dmax: 50 to 70%

MOLECULE: CC(C)n1cnc2cc(-c3ccc4c(c3)N([C@H]3C[C@@H](N5CCCCC5)C3)C(=O)C43CCN(C(=O)C4(F)CCN(C(=O)C5CCN(c6ccc(C7CCC(=O)NC7=O)cn6)CC5)CC4)CC3)nc(NC3CC3)c21 (mixture of isomers)
Dmax: 70 to 85%

MOLECULE: CC(C)n1cnc2cc(-c3ccc4c(c3)N([C@H]3C[C@@H](N5CCCCC5)C3)C(=O)C43CCN(C(=O)C4CN(C(=O)C5CCN(c6ccc(C7CCC(=O)NC7=O)cn6)CC5)CCC4(F)F)CC3)nc(NC3CC3)c21 (mixture of isomers)
Dmax: 50 to 70%

MOLECULE: CC(C)n1cnc2cc(-c3ccc4c(c3)N([C@H]3C[C@@H](N5CCCCC5)C3)C(=O)C43CCN(C(=O)C4(C)CCN(C(=O)C5CCN(c6ccc(N7CCC(=O)NC7=O)cc6)CC5)CC4)CC3)nc(NC3CC3)c21
Dmax: 70 to 85%

MOLECULE: CC(C)n1cnc2cc(-c3ccc4c(c3)N([C@H]3C[C@@H](N5CCCCC5)C3)C(=O)C43CCN(C(=O)C4CCN(C(=O)[C@H]5CC[C@H](Nc6cccc7c6C(=O)N(C6CCC(=O)NC6=O)C7=O)CC5)CC4)CC3)nc(Nc3ccccc3F)c21 (mixture of isomers)
Dmax: 70 to 85%

MOLECULE: CC(C)n1cnc2cc(-c3ccc4c(c3)N([C@H]3C[C@@H](N5CC6CCC(C6)C5)C3)C(=O)C43CCN(C(=O)C4(C)CCN(C(=O)C5CCN(c6ccc(C7CCC(=O)NC7=O)cn6)CC5)CC4)CC3)nc(NC3CC3)c21 (mixture of isomers)
Dmax: > 85%

MOLECULE: CC(C)n1cnc2cc(-c3ccc4c(c3)N([C@H]3C[C@@H](N5CCC[C@H](F)C5)C3)C(=O)C43CCN(C(=O)C4(C)CCN(C(=O)C5CCN(c6ccc(C7CCC(=O)NC7=O)cn6)CC5)CC4)CC3)nc(NC3CC3)c21 (mixture of isomers)
Dmax: 70 to 85%

MOLECULE: CC(C)n1cnc2cc(-c3ccc4c(c3)N([C@H]3C[C@@H](N5CCCCC5)C3)C(=O)C43CCN(C(=O)C4(C)CCN(C(=O)C5CCN(c6ccc(C7CCC(=O)NC7=O)cn6)CC5)CC4)CC3)nc(N3CC(C#N)C3)c21 (stereo partly shown)
Dmax: 70 to 85%

MOLECULE: CC(C)n1cnc2cc(-c3ccc4c(c3)N([C@H]3C[C@@H](N5CCCCC5)C3)C(=O)C43CCN(C(=O)c4ccc(C5CCN(C(=O)C6CCN(c7ccc(C8CCC(=O)NC8=O)cn7)CC6)CC5)cc4)CC3)nc(NC3CC3)c21 (mixture of isomers)
Dmax: 70 to 85%

MOLECULE: CC(C)n1cnc2cc(-c3ccc4c(c3)N([C@H]3C[C@@H](N5CCCCC5)C3)C(=O)C43CCN(C(=O)C4(C)CCN(C(=O)C5CCN(c6ccc(C7CCC(=O)NC7=O)nn6)CC5)CC4)CC3)nc(NC3CC3)c21 (mixture of isomers)
Dmax: 70 to 85%

MOLECULE: CC(C)n1cnc2cc(-c3ccc4c(c3)N([C@H]3C[C@@H](N5CCC[C@H](F)C5)C3)C(=O)C43CCN(C(=O)C4(C)CCN(C(=O)C5CCN(c6ccc(C7CCC(=O)NC7=O)cc6)CC5)CC4)CC3)nc(NC3CC3)c21 (mixture of isomers)
Dmax: 70 to 85%

MOLECULE: CC(C)n1cnc2cc(-c3ccc4c(c3)N([C@H]3C[C@@H](N5CCCCC5)C3)C(=O)C43CCN(C(=O)C(C)(C)N4CCN(C(=O)C5CCN(c6ccc(C7CCC(=O)NC7=O)cn6)CC5)CC4)CC3)nc(NC3CC3)c21 (mixture of isomers)
Dmax: 70 to 85%

MOLECULE: CC(C)n1cnc2cc(-c3ccc4c(c3)N([C@H]3C[C@@H](N5CCCCC5)C3)C(=O)C43CCN(C(=O)C4(C)CCN(C(=O)C5CCN(c6ccc(C7CCC(=O)NC7=O)nc6)CC5)CC4)CC3)nc(Nc3ccccc3F)c21 (mixture of isomers)
Dmax: 70 to 85%

MOLECULE: CC(C)n1cnc2cc(-c3ccc4c(c3)N([C@H]3C[C@@H](N5CCCCC5)C3)C(=O)C43CCN(C(=O)C45CN(C(=O)C6CCN(c7ccc(C8CCC(=O)NC8=O)cn7)CC6)CC4C5(F)F)CC3)nc(NC3CC3)c21 (mixture of isomers)
Dmax: 50 to 70%

MOLECULE: CC(C)n1cnc2cc(-c3ccc4c(c3)N([C@H]3C[C@@H](N5CCCCC5)C3)C(=O)C43CCN(C(=O)C4CCN(C(=O)CC5CCN(c6ccc(C7CCC(=O)NC7=O)cn6)CC5)CC4)CC3)nc(Oc3ccccc3F)c21 (stereo partly shown)
Dmax: 70 to 85%
